Value source: ChEMBL document CHEMBL4725393

Below: a set of entries, each annotated with reported Cmax.
procedure-details: Cmax in CD1 mouse assessed as pibrentasvir1 level at 6 mg/kg, po measured up to 24 hrs
Format: ADME, organism-based
Design: route oral, dose 6 mg/kg, time <=24
applied-conditions: in vivo
Give just the numeric value; ng/mL need not be written.

[
  {
    "structure": "COC(=O)N[C@H](C(=O)N1CCC[C@H]1c1nc2cc(F)c([C@H]3CC[C@H](c4cc5nc([C@@H]6CCCN6C(=O)[C@@H](NC(=O)OC)[C@@H](C)OC)n(COC(=O)Cc6ccc(OP(=O)(O)O)cc6)c5cc4F)N3c3cc(F)c(N4CCC(c5ccc(F)cc5)CC4)c(F)c3)cc2[nH]1)[C@@H](C)OC",
    "Cmax / ng/mL": 905
  }
]

In: So what does the record say about Cmax for `COC(=O)N[C@H](C(=O)N1CCC[C@H]1c1nc2cc(F)c([C@H]3CC[C@H](c4cc5nc([C@@H]6CCCN6C(=O)[C@@H](NC(=O)OC)[C@@H](C)OC)n(COC(=O)[C@@H](NC(=O)OCOP(=O)(O)O)C(C)C)c5cc4F)N3c3cc(F)c(N4CCC(c5ccc(F)cc5)CC4)c(F)c3)cc2[nH]1)[C@@H](C)OC` ?
Out: 498

---

procedure-details: Cmax in CD1 mouse assessed as pibrentasvir1 level at 6 mg/kg, po measured up to 24 hrs
Type: ADME, organism-based
Parameters: route oral, dose 6 mg/kg, time <=24
applied-conditions: in vivo
recorded-endpoint: Cmax (ng/mL)

[
  {
    "structure": "COC(=O)N[C@H](C(=O)N1CCC[C@H]1c1nc2cc(F)c([C@H]3CC[C@H](c4cc5nc([C@@H]6CCCN6C(=O)[C@@H](NC(=O)OC)[C@@H](C)OC)n(COC(=O)Cc6ccccc6OP(=O)(O)O)c5cc4F)N3c3cc(F)c(N4CCC(c5ccc(F)cc5)CC4)c(F)c3)cc2[nH]1)[C@@H](C)OC",
    "Cmax (ng/mL)": 584
  },
  {
    "structure": "COC(=O)N[C@H](C(=O)N1CCC[C@H]1c1nc2cc(F)c([C@H]3CC[C@H](c4cc5c(cc4F)nc([C@@H]4CCCN4C(=O)[C@@H](NC(=O)OC)[C@@H](C)OC)n5COC(=O)[C@@H](NC(=O)OCOP(=O)(O)O)C(C)C)N3c3cc(F)c(N4CCC(c5ccc(F)cc5)CC4)c(F)c3)cc2[nH]1)[C@@H](C)OC",
    "Cmax (ng/mL)": 513
  },
  {
    "structure": "COC(=O)N[C@H](C(=O)N1CCC[C@H]1c1nc2cc(F)c([C@H]3CC[C@H](c4cc5nc([C@@H]6CCCN6C(=O)[C@@H](NC(=O)OC)[C@@H](C)OC)n(COC(=O)c6cccc(OP(=O)(O)O)c6)c5cc4F)N3c3cc(F)c(N4CCC(c5ccc(F)cc5)CC4)c(F)c3)cc2[nH]1)[C@@H](C)OC",
    "Cmax (ng/mL)": 96
  }
]

a = COC(=O)N[C@H](C(=O)N1CCC[C@H]1c1nc2cc(F)c([C@H]3CC[C@H](c4cc5nc([C@@H]6CCCN6C(=O)[C@@H](NC(=O)OC)[C@@H](C)OC)n(COC(=O)CCCOP(=O)(O)O)c5cc4F)N3c3cc(F)c(N4CCC(c5ccc(F)cc5)CC4)c(F)c3)cc2[nH]1)[C@@H](C)OC
b = COC(=O)N[C@H](C(=O)N1CCC[C@H]1c1nc2cc(F)c([C@H]3CC[C@H](c4cc5c(cc4F)nc([C@@H]4CCCN4C(=O)[C@@H](NC(=O)OC)[C@@H](C)OC)n5COC(=O)CCCOP(=O)(O)O)N3c3cc(F)c(N4CCC(c5ccc(F)cc5)CC4)c(F)c3)cc2[nH]1)[C@@H](C)OC
In: Min Cmax? a | b Lab note: record the label of whichever item you select.
Out: a
(a: 336 ng/mL, b: 784 ng/mL)

---

procedure-details: Cmax in beagle dog at 40 mg, po measured up to 24 hrs
Format: ADME, organism-based, Canis lupus familiaris
Set-up: route oral, dose 40 mg, time <=24
applied-conditions: in vivo
recorded-endpoint: Cmax (ng/mL)

1 = COC(=O)N[C@H](C(=O)N1CCC[C@H]1c1nc2cc(F)c([C@H]3CC[C@H](c4cc5c(cc4F)nc([C@@H]4CCCN4C(=O)[C@@H](NC(=O)OC)[C@@H](C)OC)n5COP(=O)(O)O)N3c3cc(F)c(N4CCC(c5ccc(F)cc5)CC4)c(F)c3)cc2[nH]1)[C@@H](C)OC
2 = COC(=O)N[C@H](C(=O)N1CCC[C@H]1c1nc2cc([C@H]3CC[C@H](c4cc5nc([C@@H]6CCCN6C(=O)[C@@H](NC(=O)OC)[C@@H](C)OC)[nH]c5cc4F)N3c3cc(F)c(N4CCC(c5ccc(F)cc5)CC4)c(F)c3)c(F)cc2[nH]1)[C@@H](C)OC
In: // which entry has the larger Cmax value, 1 or 2 ? Lab note: record the label of whichever item you select.
Out: 2

---

procedure-details: AUC in beagle dog assessed as pibrentasvir1 level at 40 mg, po measured up to 24 hrs
Format: ADME, organism-based, Canis lupus familiaris
Set-up: route oral, dose 40 mg, time <=24
applied-conditions: in vivo
recorded-endpoint: AUC (ng·h/mL)

Known results for compounds:
[
  {
    "compound": "COC(=O)N[C@H](C(=O)N1CCC[C@H]1c1nc2cc(F)c([C@H]3CC[C@H](c4cc5c(cc4F)nc([C@@H]4CCCN4C(=O)[C@@H](NC(=O)OC)[C@@H](C)OC)n5COP(=O)(O)O)N3c3cc(F)c(N4CCC(c5ccc(F)cc5)CC4)c(F)c3)cc2n1COP(=O)(O)O)[C@@H](C)OC",
    "units-text": "ng·h/mL",
    "AUC": 611
  },
  {
    "compound": "COC(=O)N[C@H](C(=O)N1CCC[C@H]1c1nc2cc(F)c([C@H]3CC[C@H](c4cc5nc([C@@H]6CCCN6C(=O)[C@@H](NC(=O)OC)[C@@H](C)OC)n(COC(=O)CCCOP(=O)(O)O)c5cc4F)N3c3cc(F)c(N4CCC(c5ccc(F)cc5)CC4)c(F)c3)cc2[nH]1)[C@@H](C)OC",
    "units-text": "ng·h/mL",
    "AUC": 4510
  },
  {
    "compound": "COC(=O)N[C@H](C(=O)N1CCC[C@H]1c1nc2cc(F)c([C@H]3CC[C@H](c4cc5nc([C@@H]6CCCN6C(=O)[C@@H](NC(=O)OC)[C@@H](C)OC)n(COC(=O)c6ccccc6COP(=O)(O)O)c5cc4F)N3c3cc(F)c(N4CCC(c5ccc(F)cc5)CC4)c(F)c3)cc2[nH]1)[C@@H](C)OC",
    "units-text": "ng·h/mL",
    "AUC": 1150
  },
  {
    "compound": "COC(=O)N[C@H](C(=O)N1CCC[C@H]1c1nc2cc(F)c([C@H]3CC[C@H](c4cc5nc([C@@H]6CCCN6C(=O)[C@@H](NC(=O)OC)[C@@H](C)OC)n(C(=O)OCCCOP(=O)(O)O)c5cc4F)N3c3cc(F)c(N4CCC(c5ccc(F)cc5)CC4)c(F)c3)cc2[nH]1)[C@@H](C)OC",
    "units-text": "ng·h/mL",
    "AUC": 2140
  },
  {
    "compound": "COC(=O)N[C@H](C(=O)N1CCC[C@H]1c1nc2cc([C@H]3CC[C@H](c4cc5c(cc4F)nc([C@@H]4CCCN4C(=O)[C@@H](NC(=O)OC)[C@@H](C)OC)n5COP(=O)(O)O)N3c3cc(F)c(N4CCC(c5ccc(F)cc5)CC4)c(F)c3)c(F)cc2n1COP(=O)(O)O)[C@@H](C)OC",
    "units-text": "ng·h/mL",
    "AUC": 2580
  },
  {
    "compound": "COC(=O)N[C@H](C(=O)N1CCC[C@H]1c1nc2cc(F)c([C@H]3CC[C@H](c4cc5nc([C@@H]6CCCN6C(=O)[C@@H](NC(=O)OC)[C@@H](C)OC)n(COC(=O)Cc6ccccc6OP(=O)(O)O)c5cc4F)N3c3cc(F)c(N4CCC(c5ccc(F)cc5)CC4)c(F)c3)cc2[nH]1)[C@@H](C)OC",
    "units-text": "ng·h/mL",
    "AUC": 2940
  },
  {
    "compound": "COC(=O)N[C@H](C(=O)N1CCC[C@H]1c1nc2cc(F)c([C@H]3CC[C@H](c4cc5nc([C@@H]6CCCN6C(=O)[C@@H](NC(=O)OC)[C@@H](C)OC)n(COC(=O)N(C)c6ncccc6COP(=O)(O)O)c5cc4F)N3c3cc(F)c(N4CCC(c5ccc(F)cc5)CC4)c(F)c3)cc2[nH]1)[C@@H](C)OC",
    "units-text": "ng·h/mL",
    "AUC": 3020
  },
  {
    "compound": "COC(=O)N[C@H](C(=O)N1CCC[C@H]1c1nc2cc([C@H]3CC[C@H](c4cc5nc([C@@H]6CCCN6C(=O)[C@@H](NC(=O)OC)[C@@H](C)OC)[nH]c5cc4F)N3c3cc(F)c(N4CCC(c5ccc(F)cc5)CC4)c(F)c3)c(F)cc2[nH]1)[C@@H](C)OC [PIBRENTASVIR]",
    "units-text": "ng·h/mL",
    "AUC": 3860
  }
]

a = COC(=O)N[C@H](C(=O)N1CCC[C@H]1c1nc2cc(F)c([C@H]3CC[C@H](c4cc5nc([C@@H]6CCCN6C(=O)[C@@H](NC(=O)OC)[C@@H](C)OC)n(COP(=O)(O)O)c5cc4F)N3c3cc(F)c(N4CCC(c5ccc(F)cc5)CC4)c(F)c3)cc2[nH]1)[C@@H](C)OC
b = COC(=O)N[C@H](C(=O)N1CCC[C@H]1c1nc2cc(F)c([C@H]3CC[C@H](c4cc5c(cc4F)nc([C@@H]4CCCN4C(=O)[C@@H](NC(=O)OC)[C@@H](C)OC)n5COP(=O)(O)O)N3c3cc(F)c(N4CCC(c5ccc(F)cc5)CC4)c(F)c3)cc2[nH]1)[C@@H](C)OC
In: Min AUC? a | b Lab note: record the label of whichever item you select.
Out: a
